Origin of measurements: patent US20260015322A1

Experiment: Plasma Stability Assay (Example A2), mouse plasma
Format: in vitro ADME
Details: Mouse Plasma, 37° C., prodrug remaining; 240 min
experimental readout: Prodrug (%)

CCN(C)C(=O)OC1=C[C@@H]2N(C)CC[C@]2(c2ccc(OC)c(OC)c2)CC1
98.5%

[in] Reported Prodrug (%), compound `COc1ccc([C@@]23CCC(OP(=O)(O)O)=C[C@@H]2N(C)CC3)cc1OC` : ____
[out] 59.1%

[in] Reported Prodrug (%), compound `COc1ccc([C@@]23CCC(OC(=O)N(C)C)=C[C@@H]2N(C)CC3)cc1OC` : ____
[out] 88.9%

[in] Reported Prodrug (%), compound `COc1ccc([C@@]23CCC(OP4(=O)OCC(C)(C)CO4)=C[C@@H]2N(C)CC3)cc1OC` : ____
[out] 50.3%

[in] Reported Prodrug (%), compound `COc1ccc([C@@]23CCC(OC(=O)N4CCN(C)CC4)=C[C@@H]2N(C)CC3)cc1OC` : ____
[out] >99%

[in] Reported Prodrug (%), compound `COc1ccc([C@@]23CCC(OP(=O)(Oc4ccccc4)Oc4ccccc4)=C[C@@H]2N(C)CC3)cc1OC` : ____
[out] 11.7%

[in] Reported Prodrug (%), compound `COc1ccc([C@@]23CCC(OP(=O)(OC(C)C)OC(C)C)=C[C@@H]2N(C)CC3)cc1OC` : ____
[out] 31.7%

----------
Experiment: Plasma Stability Assay (Example A3), human plasma
Type: in vitro ADME
Conditions: 10 μM, 37° C., prodrug remaining, 0 min
experimental readout: Prodrug (%)
Number first, unit second.

As a guide, the following entries are already answered.
COc1ccc([C@@]23CCC(OP(=O)(O)OCOC(=O)OC(C)C)=C[C@@H]2N(C)CC3)cc1OC
100.0%
COc1ccc([C@@]23CCC(OP(=O)(O)OCOC(=O)C(C)(C)C)=C[C@@H]2N(C)CC3)cc1OC
100.0%
COc1ccc([C@@]23CCC(OP(=O)(OC(C)C)OC(C)C)=C[C@@H]2N(C)CC3)cc1OC
100.0%
COc1ccc([C@@]23CCC(OP4(=O)OCC(C)(C)CO4)=C[C@@H]2N(C)CC3)cc1OC
100.00%
COc1ccc([C@@]23CCC(OP(=O)(O)OCOC(=O)C(C)C)=C[C@@H]2N(C)CC3)cc1OC
100.0%
COc1ccc([C@@]23CCC(OP4(=O)OC(C)CC(C)O4)=C[C@@H]2N(C)CC3)cc1OC (stereo partly shown)
100.00%

Kindly review the next molecule as well.
[in] Reported Prodrug (%), molecule `COc1ccc([C@@]23CCC(OP4(=O)OCCCO4)=C[C@@H]2N(C)CC3)cc1OC` : ____
[out] 100.0%

----------
Test: in vivo
Format: in vivo, male C57BL/6 mice
Conditions: male, C57BL/6, mouse, in vivo; 321; 321 IV 2 mg/kg, mice; 0.5 h; read-out: Plasma concentrations (mean)
experimental readout: concentration at 0.5 h (ng/mL)
Write it as a number; the unit ng/mL goes unstated.

[in] Reported concentration at 0.5 h, compound `COc1ccc([C@@]23CCC(OP(=O)(OC(C)C)OC(C)C)=C[C@@H]2N(C)CC3)cc1OC` : ____
[out] 26.2

----------
Assay: Plasma Stability Assay (Example A2), human plasma
Assay type: in vitro ADME
Conditions: 37° C., prodrug remaining, 240 min
experimental readout: Prodrug (%)
Number first, unit second.

[in] Reported Prodrug (%), compound `COc1ccc([C@@]23CCC(OC(=O)N(C)C)=C[C@@H]2N(C)CC3)cc1OC` : ____
[out] 96.5%

[in] Reported Prodrug (%), compound `CCN(C)C(=O)OC1=C[C@@H]2N(C)CC[C@]2(c2ccc(OC)c(OC)c2)CC1` : ____
[out] 93.9%

[in] Reported Prodrug (%), compound `COc1ccc([C@@]23CCC(OP(=O)(OC(C)C)OC(C)C)=C[C@@H]2N(C)CC3)cc1OC` : ____
[out] 78.2%

[in] Reported Prodrug (%), compound `COc1ccc([C@@]23CCC(OC(=O)N4CCN(C)CC4)=C[C@@H]2N(C)CC3)cc1OC` : ____
[out] 94.4%

[in] Reported Prodrug (%), compound `COc1ccc([C@@]23CCC(OP4(=O)OCC(C)(C)CO4)=C[C@@H]2N(C)CC3)cc1OC` : ____
[out] 1.60%

[in] Reported Prodrug (%), compound `COc1ccc([C@@]23CCC(OP(=O)(Oc4ccccc4)Oc4ccccc4)=C[C@@H]2N(C)CC3)cc1OC` : ____
[out] 95.3%

[in] Reported Prodrug (%), compound `COc1ccc([C@@]23CCC(OP(=O)(O)O)=C[C@@H]2N(C)CC3)cc1OC` : ____
[out] 25.6%

----------
# maps each entry to its Prodrug (%)
Assay: Plasma Stability Assay (Example A2), mouse plasma
Assay type: in vitro ADME
Conditions: Mouse Plasma, 37° C., prodrug remaining; 60 min
Write it as a number; the unit % goes unstated.

COc1ccc([C@@]23CCC(OP(=O)(OC(C)C)OC(C)C)=C[C@@H]2N(C)CC3)cc1OC [Compound 321]
58.4

[in] Reported Prodrug (%), compound COc1ccc([C@@]23CCC(OP(=O)(Oc4ccccc4)Oc4ccccc4)=C[C@@H]2N(C)CC3)cc1OC [Compound 320] : ____
[out] 30.7

----------
Assay: in vivo
Format: in vivo, male C57BL/6 mice
Details: male, C57BL/6, mouse, in vivo; 321; 321 IV 2 mg/kg, mice; 0.5 h; read-out: Brain concentrations (mean)
experimental readout: concentration at 0.5 h (ng/g)
Write it as a number; the unit ng/g goes unstated.

[in] Reported concentration at 0.5 h, compound COc1ccc([C@@]23CCC(OP(=O)(OC(C)C)OC(C)C)=C[C@@H]2N(C)CC3)cc1OC [Compound 321] : ____
[out] 7.89

----------
Assay: Plasma Stability Assay (Example A3), rat plasma
Format: in vitro ADME
Conditions: 10 μM, 37° C., prodrug remaining, 60 min
Param label: returns True when Prodrug (%) < 70%, returns False otherwise, including exact equality.

COc1ccc([C@@]23CCC(OP(=O)(O)OCOC(=O)OC(C)C)=C[C@@H]2N(C)CC3)cc1OC
True
COc1ccc([C@@]23CCC(OP(=O)(O)OCOC(=O)C(C)C)=C[C@@H]2N(C)CC3)cc1OC
True
COc1ccc([C@@]23CCC(OP4(=O)OCC(C)(C)CO4)=C[C@@H]2N(C)CC3)cc1OC
False
COc1ccc([C@@]23CCC(OP4(=O)OC(C)CC(C)O4)=C[C@@H]2N(C)CC3)cc1OC (stereo partly shown)
False

Now for another entry.
[in] Is it true that Prodrug (%) reported for `COc1ccc([C@@]23CCC(OP4(=O)OCCCO4)=C[C@@H]2N(C)CC3)cc1OC` is less than 70%?
[out] False

----------
Assay: in vivo
Type: in vivo, male C57BL/6 mice
Settings: male, C57BL/6, mouse, in vivo; 321; 321 IV 2 mg/kg, mice; 0.25 h; read-out: Brain concentrations (mean)
experimental readout: concentration at 0.25 h (ng/g)
Write it as a number; the unit ng/g goes unstated.

[in] Reported concentration at 0.25 h, compound `COc1ccc([C@@]23CCC(OP(=O)(OC(C)C)OC(C)C)=C[C@@H]2N(C)CC3)cc1OC` : ____
[out] 37.1

----------
Assay: Plasma Stability Assay (Example A2), human plasma
Format: in vitro ADME
Conditions: 37° C., prodrug remaining, 15 min
# maps each entry to its Prodrug (%)
Write it as a number; the unit % goes unstated.

COc1ccc([C@@]23CCC(OP(=O)(Oc4ccccc4)Oc4ccccc4)=C[C@@H]2N(C)CC3)cc1OC
95.7
COc1ccc([C@@]23CCC(OP4(=O)OCC(C)(C)CO4)=C[C@@H]2N(C)CC3)cc1OC
76.6
COc1ccc([C@@]23CCC(OP(=O)(O)O)=C[C@@H]2N(C)CC3)cc1OC
69.0

Kindly review the next compound as well.
[in] Reported Prodrug (%), compound `CCN(C)C(=O)OC1=C[C@@H]2N(C)CC[C@]2(c2ccc(OC)c(OC)c2)CC1` : ____
[out] 98.2

----------
# maps each entry to its Prodrug (%)
Test: Plasma Stability Assay (Example A3), human plasma
Assay type: in vitro ADME
Conditions: 10 μM, 37° C., prodrug remaining, 60 min
Write it as a number; the unit % goes unstated.

COc1ccc([C@@]23CCC(OP(=O)(OC(C)C)OC(C)C)=C[C@@H]2N(C)CC3)cc1OC [Compound 321]
98.1
COc1ccc([C@@]23CCC(OP4(=O)OC(C)CC(C)O4)=C[C@@H]2N(C)CC3)cc1OC (stereo partly shown) [Compound 423]
98.77

[in] Reported Prodrug (%), molecule COc1ccc([C@@]23CCC(OP4(=O)OCCCO4)=C[C@@H]2N(C)CC3)cc1OC [Compound 422] : ____
[out] 62.4

[in] Reported Prodrug (%), molecule COc1ccc([C@@]23CCC(OP(=O)(O)OCOC(=O)OC(C)C)=C[C@@H]2N(C)CC3)cc1OC [Compound 410] : ____
[out] 92.7

[in] Reported Prodrug (%), molecule COc1ccc([C@@]23CCC(OP(=O)(O)OCOC(=O)C(C)C)=C[C@@H]2N(C)CC3)cc1OC [Compound 408] : ____
[out] 69.1

[in] Reported Prodrug (%), molecule COc1ccc([C@@]23CCC(OP(=O)(O)OCOC(=O)C(C)(C)C)=C[C@@H]2N(C)CC3)cc1OC [Compound 409] : ____
[out] 93.0

[in] Reported Prodrug (%), molecule COc1ccc([C@@]23CCC(OP4(=O)OCC(C)(C)CO4)=C[C@@H]2N(C)CC3)cc1OC [Compound 323] : ____
[out] 52.7
